Method: Quantitative High-Throughput drug screen in 47 multiple myeloma cell lines against the NCATS MIPE library collection: MM1S_ATCC cell viability assay (AID 1918980); further: nearly all actives have a fitted effect of over 45% in size; further: potency means the concentration at half of the fitted maximal effect
Assay context: MM1S myeloma viability, CellTiter-Glo ATP luminescence, 48 h; series mostly up to 45.8 µM
Records with an inconclusive call do not appear. Activity calls are given as the source filed them. The call rests on the fitted dose curve; in most records, active means well fitted cell-killing curve with a large enough effect; inconclusive means small, poorly fitted or top-dose-only effect, or effect the other way; inactive means no such curve, though single readings can be large or run the other way.
Measured property: Potency

CC1=CC(=O)c2ccccc2C1=O :: 18.7 µM (active)
CNCC[C@H](Oc1cccc2ccccc12)c1cccs1 :: 2.35 µM (active)
Cn1c(=O)c2c(ncn2CC(O)CO)n(C)c1=O (stereo unspecified) :: inactive
Cc1onc(-c2ccccc2Cl)c1C(=O)N[C@@H]1C(=O)N2[C@@H]1SC(C)(C)[C@@H]2C(=O)O :: 14.8 µM (active)
COc1cnc(NS(=O)(=O)c2ccc(N)cc2)nc1 :: 29.6 µM (active)

// returns reported Potency for input CCc1c2c(nc3ccc(OC(=O)N4CCC(N5CCCCC5)CC4)cc13)-c1cc3c(c(=O)n1C2)COC(=O)[C@]3(O)CC 1.32 µM (active)

Find the recorded Potency belonging to CC(C)Cn1cnc2c(N)nc3ccccc3c21 and report it. 4.69 µM (active)

---

We begin with a simple list: items and their reported viability (% of control).
Method: High-throughput drug toxicity screening in the BPDCN cell line Cal-1 (AID 1224825);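 further: cells exposed to compounds for 48 h; 100% = DMSO and 0% = bortezomib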
Assay context: Cal-1 BPDCN cell viability, qHTS; at 45.8 µM (top of the series) unless noted
Numeric only. Scale: %

Known viability (% of control) results, listed for orientation:
NNC(=O)c1ccncc1 :: 99.3
CCN1CCCC1CNC(=O)c1cc(S(N)(=O)=O)ccc1OC (centres undefined) :: 82.8

Consider the compound shown here: CNS(=O)(=O)Cc1ccc2[nH]cc(CCN(C)C)c2c1 What is its recorded viability (% of control)? 117

---

Test system: CP329
Method: qHTS profiling for inhibitors of Plasmodium falciparum proliferation (AID 504749); further: nearly all actives have a fitted effect of over 60% in size
Assay context: P. falciparum in erythrocytes, SYBR Green DNA, 72 h; series mostly up to 28.7 µM
Results filed as inconclusive are left out. Activity calls are given as the source filed them. Calls follow the shape of the dose curve; as a rule, active = well fitted inhibition curve with a large enough effect; inconclusive = small, poorly fitted or top-dose-only effect; inactive = flat fitted curve, though single readings scatter.
Response enum: active, inactive

Cc1nnc(NS(=O)(=O)c2ccc(N)cc2)s1 :: inactive
CCOC(=O)[C@H](CCc1ccccc1)N[C@H]1CS[C@H](c2cccs2)CN(CC(=O)O)C1=O :: inactive
CN1CCN(c2c(F)cc3c(=O)c(C(=O)O)cn4c3c2OCN4C)CC1 :: inactive

Status in this test for CC[C@H](NC(C)C)[C@H](O)c1ccc(O)c2[nH]c(=O)ccc12 ? inactive

Answer briefly: the call reported for CCc1cc(C(N)=S)ccn1 in this assay. inactive

Hello, I am checking results. What call was entered for CCCc1nc(C)c2c(=O)[nH]c(-c3cc(S(=O)(=O)N4CCN(CC)CC4)ccc3OCC)nn12 ? inactive

---

This section presents compounds with their documented activity, negative = cell killing values.
Method: Drug repurposing screens with cells derived from glioblastoma tumor samples (AID 1345199); further: on the % scale 0 is the no-effect control and ±100 the full control effect; nearly all actives have a fitted effect of over 40% in size
Assay context: GBM patient neurospheres viability, ATP luminescence, 48 h; at 45.9 µM (top of the series); tumour line D
Inconclusive results are not listed.
Write the value in % as a bare number.

Some solved entries appear below for comparison.
CCCc1cc(C(N)=S)ccn1 :: -14.3
CCn1cc(C(=O)O)c(=O)c2cc(F)c(N3CCNCC3)cc21 :: 2.4
O=c1cc(O)c(Cl)c[nH]1 :: 7.88
CC1=NN(c2ccccc2)C(=O)C1 :: -8.39
CC(C)OC(=O)OCOP(=O)(CO[C@H](C)Cn1cnc2c(N)ncnc21)OCOC(=O)OC(C)C :: -12.2

Recorded activity, negative = cell killing of C[C@@H](CN1CC(=O)NC(=O)C1)N1CC(=O)NC(=O)C1 , please. -10.3

activity, negative = cell killing lookup needed for CNNCc1ccc(C(=O)NC(C)C)cc1 , thanks. -17.7

activity, negative = cell killing lookup needed for NCCCC(O)(P(=O)(O)O)P(=O)(O)O , thanks. 1.9

# lookup: activity, negative = cell killing of COc1c(N2CCNC(C)C2)c(F)cc2c(=O)c(C(=O)O)cn(C3CC3)c12 (configuration not stated) -20.8

Name the reported activity, negative = cell killing value associated with the compound CCCN[C@H]1CCc2nc(N)sc2C1 9.12

Need activity, negative = cell killing, item Nc1nc(N)nc(-c2cc(Cl)ccc2Cl)n1 7.54

For the compound shown here, CNS(=O)(=O)CCc1ccc2[nH]cc(C3CCN(C)CC3)c2c1 , give the reported activity, negative = cell killing. 2.37

---

Method: Nrf2 qHTS screen for inhibitors: Validation (AID 493153)
Assay context: A549 ARE-Fluc reporter, 18-24 h; measured here: cytotoxicity max response
Records with an inconclusive call do not appear.
Overview of recorded viability change for various compounds
Your answer is read as %, so omit the unit and give the number.

Consider the worked cases shown below.
CCN(CC)CC#CCOC(=O)C(O)(c1ccccc1)C1CCCCC1 (stereo unspecified) :: -11.3
NC(=O)c1ccc2[nH]ccc2c1 :: -7.5
N[C@@H](Cc1ccc(O)c(O)c1)C(=O)O :: -3.54
CCCCS(=N)(=O)CCC(N)C(=O)O (stereo unspecified) :: 4.08
O=C(O)C1CCCN(CCC=C(c2ccccc2)c2ccccc2)C1 (stereo unspecified) :: -7.12

Reported viability change for CCN(CC)CCn1c(=O)c(Cc2ccc(OC)cc2)nc2ccccc21 : what is it? -5.84

---

System: CP297
Method: qHTS profiling for inhibitors of Plasmodium falciparum proliferation (AID 504749); further: nearly all actives have a fitted effect of over 60% in size
Assay context: P. falciparum in erythrocytes, SYBR Green DNA, 72 h; series mostly up to 28.7 µM
Inconclusive results are not listed. The source made the active and inactive calls. Calls follow the shape of the dose curve; as a rule, active = well fitted inhibition curve with a large enough effect; inconclusive = small, poorly fitted or top-dose-only effect; inactive = flat fitted curve, though single readings scatter.
Your response should consist of one outcome taken from true = active, false = inactive

Cn1nnc2c(C(N)=O)ncn2c1=O :: false
CC[C@H](NC(C)C)[C@H](O)c1ccc(O)c2[nH]c(=O)ccc12 :: false
Nc1[nH]c(=O)ncc1F :: false

Answer briefly: the call reported for CN(Cc1cc(Br)cc(Br)c1N)C1CCCCC1 in this assay. false

Hello, I am checking results. What call was entered for CCOC(=O)c1ccc(OC(=O)CCCCCN=C(N)N)cc1 ? false

Tell me the assay call for CCCN[C@H]1CCc2nc(N)sc2C1 please. false

Which outcome was entered for the molecule COc1cnc(NS(=O)(=O)c2ccc(N)cc2)nc1 in this test? false

Please share the test call associated with COc1ccc(-c2ccc3cc(C(=O)O)ccc3c2)cc1C12CC3CC(CC(C3)C1)C2 . false

Dear all, I need the recorded test outcome for CC(=O)Oc1ccccc1C(=O)Nc1ncc([N+](=O)[O-])s1 , thank you. false

Field: outcome | Entry: O=c1oc2c(O)c(O)cc3c(=O)oc4c(O)c(O)cc1c4c23 true

In this assay, the call recorded for N[C@@H](C(=O)N[C@@H]1C(=O)N2C(C(=O)O)=C(Cl)CS[C@H]12)c1ccccc1 was what? false

Query: recorded result category for CC(C)OC(=O)C(C(=O)OC(C)C)=C1SC=CS1 in this test false

---

Method: qHTS of pediatric cancer cell lines to identify multiple opportunities for drug repurposing: Confirmatory screen for MG 63 (6-TG R) cells (AID 1347119); further: nearly all actives have a fitted effect of over 55% in size
Assay context: MG-63 (6-TG resistant) osteosarcoma viability; series mostly up to 45.9 µM
Inconclusive results are not listed. Activity calls are given as the source filed them. Calls follow the shape of the dose curve; as a rule, active = well fitted cell-killing curve with a large enough effect; inconclusive = small, poorly fitted or top-dose-only effect, or effect the other way; inactive = no such curve, though single readings can be large or run the other way.
Result category, one only: active, inactive

Example results:
CNNCc1ccc(C(=O)NC(C)C)cc1 :: inactive
CC(C)(C)C(=O)OCOP(=O)(COCCn1cnc2c(N)ncnc21)OCOC(=O)C(C)(C)C :: active
N=C(N)c1ccc(OCCCCCOc2ccc(C(=N)N)cc2)cc1 :: active

What was the test verdict on CCOC(=O)[C@H](CCc1ccccc1)N[C@H]1CS[C@H](c2cccs2)CN(CC(=O)O)C1=O ? inactive

Could you check what this test reported for CN1CCCC(n2nc(Cc3ccc(Cl)cc3)c3ccccc3c2=O)CC1 (stereo not given) ? inactive

In this assay, the call recorded for CCC(=O)O[C@]1(C(=O)SCF)[C@H](C)C[C@H]2[C@@H]3C[C@H](F)C4=CC(=O)C=C[C@]4(C)[C@@]3(F)[C@@H](O)C[C@@]21C was what? inactive

Status in this test for S=P(N1CC1)(N1CC1)N1CC1 ? inactive

Look up the recorded call for COc1cc(NCc2ccc3nc(N)nc(N)c3c2C)cc(OC)c1OC in this test. active

Field: outcome | Entry: CCc1c2c(nc3ccc(OC(=O)N4CCC(N5CCCCC5)CC4)cc13)-c1cc3c(c(=O)n1C2)COC(=O)[C@]3(O)CC active

Kindly provide the recorded test outcome for the following compound: CNCC[C@H](Oc1cccc2ccccc12)c1cccs1 active

---

Method: qHTS of pediatric cancer cell lines to identify multiple opportunities for drug repurposing: Confirmatory screen for Rh30 cells (AID 1347126); further: nearly all actives have a fitted effect of over 55% in size
Assay context: Rh30 rhabdomyosarcoma cell viability; series mostly up to 45.9 µM
Results filed as inconclusive are left out. Activity calls are given as the source filed them. Calls come from the whole dose curve; as a rule, active = well fitted cell-killing curve with a large enough effect; inconclusive = small, poorly fitted or top-dose-only effect, or effect the other way; inactive = no such curve, though single readings can be large or run the other way.
Outcomes you can answer with include only these: 1 for active, 0 for inactive

Reference set, count: 2
CC(C)C[C@H](NC(=O)[C@H](CCc1ccccc1)NC(=O)CN1CCOCC1)C(=O)N[C@@H](Cc1ccccc1)C(=O)N[C@@H](CC(C)C)C(=O)[C@@]1(C)CO1 :: 1
Cn1nnc2c(C(N)=O)ncn2c1=O :: 0

Shifting focus to the compound that follows.
What is the recorded call for this compound in the test? COc1cc2nc(N3CCCN(C)CC3)nc(NC3CCN(Cc4ccccc4)CC3)c2cc1OC 1

These data points were gathered from PubChem BioAssay (NCATS).
